Give polymerase ribozyme fitness (log ratio) for every item shown.
B1: TPR t1 (parent)
chain: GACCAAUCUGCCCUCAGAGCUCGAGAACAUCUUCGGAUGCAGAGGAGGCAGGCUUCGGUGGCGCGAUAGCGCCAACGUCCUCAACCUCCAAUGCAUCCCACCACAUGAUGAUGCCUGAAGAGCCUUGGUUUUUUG

variants of: B1; assay: polymerase ribozyme fitness, log enrichment relative to wild type (log ratio); higher = more active; in vitro selection for triplet polymerase activity
Lab note: record just the number, no unit beside it.

What the record says about C20U A37G C102A : polymerase ribozyme fitness (log ratio) is -3.43

What the record says about C11U A50U C70U G113A : polymerase ribozyme fitness (log ratio) is -2.63

What the record says about C31G C72A : polymerase ribozyme fitness (log ratio) is -6.86

What the record says about C53U C94A A121C : polymerase ribozyme fitness (log ratio) is 0.891

What the record says about A46U C104A : polymerase ribozyme fitness (log ratio) is -2.88

What the record says about U87A C123A : polymerase ribozyme fitness (log ratio) is 0.223

What the record says about C12G C82U A105U U106A U109G : polymerase ribozyme fitness (log ratio) is -1.76

What the record says about G42A C80U : polymerase ribozyme fitness (log ratio) is -2.64

What the record says about C13G U59A C62G : polymerase ribozyme fitness (log ratio) is -3.87

What the record says about C85G U106G : polymerase ribozyme fitness (log ratio) is -2.45

What the record says about G35C C53U C56G G120A : polymerase ribozyme fitness (log ratio) is -2.61

What the record says about U7G A84U G127A : polymerase ribozyme fitness (log ratio) is -0.135

What the record says about A29C C102A U109G : polymerase ribozyme fitness (log ratio) is -2.1

What the record says about C8U G39C C79U G120U : polymerase ribozyme fitness (log ratio) is 1.3

What the record says about C31U G71U C124G : polymerase ribozyme fitness (log ratio) is -3.59

What the record says about G42A G60U C82U U112G G127C : polymerase ribozyme fitness (log ratio) is -3.6

What the record says about C3U C62A C72U : polymerase ribozyme fitness (log ratio) is -0.819

What the record says about C8A G45C : polymerase ribozyme fitness (log ratio) is 0.366

What the record says about A29G C53G U106A G117C : polymerase ribozyme fitness (log ratio) is -3.33

What the record says about G42C C49U G128A : polymerase ribozyme fitness (log ratio) is -5.33

What the record says about G36U U81A : polymerase ribozyme fitness (log ratio) is -2.11

What the record says about A41U C80A C104U : polymerase ribozyme fitness (log ratio) is -6.34

What the record says about C62A A84U : polymerase ribozyme fitness (log ratio) is -1.52

What the record says about A5G C72G U87A A118U : polymerase ribozyme fitness (log ratio) is -1.92

What the record says about G42U A46U U96G : polymerase ribozyme fitness (log ratio) is -2.26

What the record says about U9A G63U : polymerase ribozyme fitness (log ratio) is -0.179

What the record says about C62U C104G : polymerase ribozyme fitness (log ratio) is -7

What the record says about U33G U55A : polymerase ribozyme fitness (log ratio) is -4.84

What the record says about C56U G69U C79U G120A U130G : polymerase ribozyme fitness (log ratio) is -1.59

What the record says about G45A A46U : polymerase ribozyme fitness (log ratio) is -1.72

What the record says about G19A C40U G45C G61C C124A : polymerase ribozyme fitness (log ratio) is -3.57

What the record says about G57A G69A C76G : polymerase ribozyme fitness (log ratio) is -3.53

What the record says about C28A G63A : polymerase ribozyme fitness (log ratio) is -5.86

What the record says about G52U G77U G117U U126C : polymerase ribozyme fitness (log ratio) is -5.18

What the record says about C82A G93A : polymerase ribozyme fitness (log ratio) is -0.17

What the record says about C49A G51U C56A : polymerase ribozyme fitness (log ratio) is -2.24

What the record says about C40U G45U G48U C82G A84G G120A : polymerase ribozyme fitness (log ratio) is -2.88

What the record says about G10A C20U A27C G61U C102U : polymerase ribozyme fitness (log ratio) is -6.05

What the record says about C85G U131A : polymerase ribozyme fitness (log ratio) is -1.92

What the record says about U7G U32A G39U G127C U130C : polymerase ribozyme fitness (log ratio) is -5.02

What the record says about C13G G47U U87A C88U G110U : polymerase ribozyme fitness (log ratio) is -6.69

What the record says about C79A C82U C94A G113A G128U : polymerase ribozyme fitness (log ratio) is -5.6
